Molecular target: Cellular tumor antigen p53 (Homo sapiens) (UniProt P04637)
Sequence (P04637 whole entry, looked up): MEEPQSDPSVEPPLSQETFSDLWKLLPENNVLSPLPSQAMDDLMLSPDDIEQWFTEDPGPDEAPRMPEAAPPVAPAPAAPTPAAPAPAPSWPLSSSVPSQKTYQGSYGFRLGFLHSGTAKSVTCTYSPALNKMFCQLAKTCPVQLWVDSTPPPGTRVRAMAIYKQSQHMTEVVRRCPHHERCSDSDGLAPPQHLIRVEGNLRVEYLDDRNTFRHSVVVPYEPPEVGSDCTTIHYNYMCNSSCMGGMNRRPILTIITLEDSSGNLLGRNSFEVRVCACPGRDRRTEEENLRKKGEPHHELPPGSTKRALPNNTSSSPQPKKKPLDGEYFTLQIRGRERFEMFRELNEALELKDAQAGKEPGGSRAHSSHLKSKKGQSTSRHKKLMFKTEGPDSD
Assay: ATG_p53_CIS: Attagene CIS-FACTORIAL HepG2 Assay for human p53 Transcription Factor (AID 2282994)
Details: HepG2 p53 cis-element reporter, Attagene mRNA; actives raise or lower the signal
Calls of active or inactive are those of the source. How the source made its calls: active means hit-call score of the fitted dose curve at least 0.9, where 1 is the maximum; inactive means score below 0.9.
Classes used: t (active), f (inactive)

COMPOUND | CLASS LABEL
CCC(C)C=O (stereo not drawn) | f
O=[N+]([O-])c1ccc(CO)cc1 | f
Cn1c([N+](=O)[O-])cnc1COC(N)=O | f
CCCCCCCCCCCCCOP(=O)(O)O | f
Nc1ccc(Cl)cc1Cl | f
CCCCCCCCc1ccc(Nc2ccc(CCCCCCCC)cc2)cc1 | f
C1=Cc2ccccc2C1 | f
O=C1CCCC1 | f
O=C(Nc1cccc(C(F)(F)F)c1)c1cc(Br)cc(Br)c1O | t
C=CC(=O)OCCC(=O)O | f
Cc1ccccc1C | f
CCOC(=O)CC(C(C)=O)C(C)=O | f
COCC(C)N (stereo not drawn) | f
OC1OCCOC1O (stereo not drawn) | f
C(=CC=Nc1ccccc1)C=CNc1ccccc1 | f
CCCCCCC1(C)CCC(=O)O1 (stereo not drawn) | f
CCOc1nc(F)cc2nc(S(=O)(=O)Nc3c(Cl)cccc3C(=O)OC)nn12 | f
N#CCc1ccc(Cl)cc1Cl | f
CC(CC=O)c1ccccc1 (stereo not drawn) | f
CCC(C)OC(=O)c1ccc(O)cc1 (stereo not drawn) | f
CCCOCCOCCOCCO | f
CCCCC/C=C\CCC=O | f
CCCC(=O)OCc1ccccc1 | f
CC(C)C1=CC2=CC[C@@H]3[C@](C)(CCC[C@@]3(C)C(=O)O)[C@H]2CC1 | f
O=c1[nH]nc(-c2ccc([N+](=O)[O-])o2)o1 | f
O=c1c2ccccc2nnn1CCl | f
CC(=O)c1ccc2c(c1)CCCC2 | f
Cc1cccc(N)n1 | f
CC(C)(C)c1ccc(OC(=O)c2ccccc2O)cc1 | f
Cc1cc(C)c(C)c(O)c1 | f
Cc1cc(C)c(C)c(C)c1 | f
CCCCC(CC)COC(=O)c1ccccc1O (stereo not drawn) | f
O=C1CCCN1CCO | f
O=[N+]([O-])C1(Br)COCOC1 | t
COCCOCCOCCOCCOC | f
Nc1cccc(C(F)(F)F)c1 | f
C=C(C)[C@H]1CC=C(C)CC1 | f
CCc1c(C(=O)O)c(=O)cnn1-c1ccc(Cl)cc1 | f
C=C1C2CCC(C2)C1(C)C (stereo not drawn) | f
Clc1nc2ccccc2s1 | f
CC1OC1C1CCC2(C)OC2C1 (stereo not drawn) | f
CCCCCCCCCCOC(C)=O | f
COCc1c(C(C)C)nc(C(C)C)c(/C=C/[C@@H](O)C[C@@H](O)CC(=O)O)c1-c1ccc(F)cc1 | f

---

Assay: CPHEA_Stoker_NIS_Cytotoxicity: Cytotoxicity Assessment for CPHEA's Radioactive Iodide Uptake (RAIU) Assay for Sodium/Iodide Symporter (NIS) Inhibition, Stoker and Laws Labs (AID 2283897)
Calls of active or inactive are those of the source. The calls were made as follows: active = hit-call score of the fitted dose curve at least 0.9, where 1 is the maximum; inconclusive = response in the unintended direction; inactive = score below 0.9.
Classes used: Yes (active), No (inactive)

SMI | CLASS LABEL
O=C(C=Cc1ccccc1)OCc1ccccc1 | No
CCN(CCC#N)c1ccc(N=Nc2c(Cl)cc([N+](=O)[O-])cc2Cl)cc1 | No
Oc1ccc(Cl)cc1Cc1cc(Cl)ccc1O | Yes
C1CN(SSN2CCOCC2)CCO1 | No
